Taken from patent US20120130146A1.

TEST: Continuous infusion study pharmacokinetics (plasma)
Type: in vivo, human
ASSAY SETUP: human, plasma, iv, 4 mg/h, Rate 4 mg/h; 336 h; Mean; read-out: EMD 121974 Concentrations, Mean
TEST READOUT: level at 336 h (ng/mL)
# output: bare number, implied unit ng/mL

// level at 336 h value for CC(C)[C@H]1C(=O)N[C@@H](CCCN=C(N)N)C(=O)NCC(=O)N[C@@H](CC(=O)O)C(=O)N[C@H](Cc2ccccc2)C(=O)N1C [Cilengitide, cyclo-(Arg-Gly-Asp-DPhe-NMeVal)] : 726

---

TEST: Continuous infusion study pharmacokinetics (plasma)
Format: in vivo, human
ASSAY SETUP: human, plasma, iv, 8 mg/h, Rate 8 mg/h; 336 h; Mean; read-out: EMD 121974 Concentrations, Mean
TEST READOUT: level at 336 h (ng/mL)
# output: bare number, implied unit ng/mL

// level at 336 h value for CC(C)[C@H]1C(=O)N[C@@H](CCCN=C(N)N)C(=O)NCC(=O)N[C@@H](CC(=O)O)C(=O)N[C@H](Cc2ccccc2)C(=O)N1C [Cilengitide, cyclo-(Arg-Gly-Asp-DPhe-NMeVal)] : 525
